Biological target: Dihydroorotate dehydrogenase (quinone), mitochondrial (Homo sapiens, UniProt Q02127)
Sequence (Q02127 whole entry): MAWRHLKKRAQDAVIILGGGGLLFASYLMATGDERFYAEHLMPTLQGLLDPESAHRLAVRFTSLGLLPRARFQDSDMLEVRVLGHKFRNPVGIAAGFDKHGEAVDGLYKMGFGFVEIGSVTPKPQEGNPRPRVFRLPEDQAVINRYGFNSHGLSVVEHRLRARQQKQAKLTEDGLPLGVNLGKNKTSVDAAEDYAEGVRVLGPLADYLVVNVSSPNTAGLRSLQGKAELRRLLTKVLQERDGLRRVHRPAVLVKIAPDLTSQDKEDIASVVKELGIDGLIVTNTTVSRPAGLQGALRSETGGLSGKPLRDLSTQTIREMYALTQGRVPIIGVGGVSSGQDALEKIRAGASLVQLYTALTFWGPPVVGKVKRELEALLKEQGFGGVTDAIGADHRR
Assay: Inhibition of recombinant human DHODH by DCIP-based assay
Type: single protein
pIC50: −log10 of the molar value.
MEASUREMENT TYPE: pIC50

Some solved cases for reference:
INSERT INTO assay_data (compound, numeric_result) VALUES
  ('Cc1ccc(/C=N/N(C)c2nc(-c3ccccc3Cl)cs2)c(C(=O)O)c1', 8.10),
  ('CCCN(/N=C/c1ccccc1C(=O)O)c1nc(-c2ccccc2Cl)cs1', 8.05),
  ('O=C(O)c1ccccc1/C=N/Nc1nc(-c2ccccc2Cl)cs1', 7.54);

I. CCC(C)N(/N=C/c1ccccc1C(=O)O)c1nc(-c2ccccc2Cl)cs1 (stereo unspecified)
II. O=C(O)c1ccccc1/C=N/Nc1nc(-c2ccccc2)cs1
III. CN(/N=C/c1ccccc1C(=O)O)c1nc(-c2ccccc2Cl)cs1
Q: Ordering criterion: pIC50; begin with the maximum. Write out the labels following the order that was asked for.
Ans: III, I, II
(III: 8.10, I: 7.62, II: 6.86)

---

Assay: Cytotoxicity against human WI38 cells assessed as decrease in cell proliferation after 72 hrs by MTT reduction assay
Type: toxicity, cell-based, WI-38
MEASUREMENT TYPE: IC50 at 72 h (µM)
// return numeric value only (unit: µM, not printed)

Some solved cases for reference:
INSERT INTO measurements (molecule, numeric_result) VALUES
  ('CN(/N=C/c1ccc(F)cc1C(=O)O)c1nc(-c2ccccc2Cl)cs1', 29.7),
  ('Cc1c(-c2ccc(-c3ccccc3F)cc2)nc2ccc(F)cc2c1C(=O)O [BREQUINAR SODIUM]', 34),
  ('O=C(O)c1ccccc1/C=N/Nc1nc(-c2ccccc2)cs1', 34.2);

Please turn your attention to the following entry.
Q: What value of IC50 at 72 h has been reported for the following molecule? O=C(O)c1ccccc1/C=N/Nc1nc(-c2ccccc2Cl)cs1
Ans: 39.1

Where these numbers come from: ChEMBL document CHEMBL3861943
